# Test system: Staphylococcus aureus
# condition.set: Concentration 32 ug.mL-1;; ASSAY_TEST Inhibition of Bacterial Growth; detection method Absorption (OD600); MEDIA CAMHB; plate type 384well; NBS; CORNING #3640; time 18 hr
# Description: Antibacterial activity against Staphylococcus aureus MRSA ATCC 43300 (CO-ADD:GP_020); MIC in CAMBH media, using NBS plates, by OD(600)
Results with a measured potency or affinity are listed apart.
Quick reference for Inhibition among some compounds
parameter.measured: Inhibition (%)

CC1CC(C)CN(c2nccn3c(=O)n(CC(=O)Nc4cccc(C(F)(F)F)c4)nc23)C1 (stereo not given); 16.31
O=C(Cn1nc2c(SCc3ccccc3)nccn2c1=O)NCc1ccc(Cl)cc1; -0.34
COc1ccc(-c2cc3c4nnc(CCC(=O)NCc5ccccc5Cl)n4ccn3n2)cc1; 0.8
COc1ccccc1NC(=O)Cn1nc2c(Sc3ccccc3)nccn2c1=O; -14.27
Cc1cc2nn(CC(=O)Nc3cccc(F)c3)c(=O)n2c(Nc2ccc(F)c(C)c2)n1; -1.56
Cc1cc(F)ccc1NC(=O)Cn1nc2c(SCc3ccc(Cl)cc3)nccn2c1=O; 7.28
Cc1c(Cl)cccc1NC(=O)Cn1nc2c3c4c(sc3ncn2c1=O)CCCCC4; 3.69
COc1cccc(-n2ccn3c(SCC(=O)N4CCN(c5ccccc5F)CC4)nnc3c2=O)c1; 12.37
Cc1ccc(Oc2nccn3c(=O)n(CC(=O)NCCC4=CCCCC4)nc23)cc1; 4.93
COc1ccc(-c2cc3c4nn(CC(=O)Nc5ccccc5OC)c(=O)n4ccn3n2)cc1; 2.83
O=C(Cn1nc2c(SC3CCCCC3)nccn2c1=O)N1CCN(c2ccccc2)CC1; 2.31
COc1ccc(NC(=O)c2ccc3nn(CC(=O)Nc4ccccc4C(F)(F)F)c(=O)n3c2)cc1; 9.89
COc1ccccc1-n1ccn2c(SCc3ccccc3F)nnc2c1=O; 11.33
O=C(CSc1nnc2c(=O)n(-c3ccccc3)ccn12)Nc1ccc(Br)cc1; 5.51
CC(=O)c1ccc(NC(=O)Cn2nc3ccc(Sc4ccccc4)nn3c2=O)cc1; 5.54
Cc1nnc2c(=O)n(CC(=O)Nc3ccc(Br)cc3)c3ccccc3n12; -6.47
COc1cccc(CNC(=O)CSc2nnc3c4cc(-c5ccc(C)cc5)nn4ccn23)c1; -18.93
Cc1ccccc1Oc1nc2ccccc2n2c(=O)n(CC(=O)NCc3ccc4c(c3)OCO4)nc12; 13.3
COc1cccc(-n2ccn3c(SCC(=O)Nc4ccc(OC)c(OC)c4)nnc3c2=O)c1; 14.09
CCc1nnc2c(=O)n(CC(=O)Nc3cc(Cl)ccc3Cl)c3ccccc3n12; 1.29
Cc1c(Cl)cccc1-n1ccn2c(=O)n(Cc3c(F)cccc3Cl)nc2c1=O; -0.05
CC(C)c1nnc2c(=O)n(CC(=O)Nc3cccc(Br)c3)c3ccccc3n12; 13.16
Cc1ccc(Sc2nccn3c(=O)n(CC(=O)Nc4ccccc4C)nc23)c(C)c1; -3.06
CCc1ccc(NC(=O)Cn2nc3ccc(SC(C)(C)C)nn3c2=O)cc1; 4.76
COc1ccc(-c2cc3c4nnc(SCC(=O)NCc5ccccc5)n4ccn3n2)cc1; -8.9
CC1CC(C)CN(c2nccn3c(=O)n(CC(=O)NCc4ccccc4Cl)nc23)C1 (stereo not given); 3.32
Cc1ccc(NC(=O)Cn2nc3c(SC4CCCCC4)nccn3c2=O)c(Br)c1; 0.51
COc1cc(NC(=O)CSc2nnc3c(=O)n(-c4cccc(F)c4)ccn23)cc(OC)c1; 10.57
O=C(Cn1nc2c3c4c(sc3ncn2c1=O)CCCC4)Nc1ccc2c(c1)OCO2; -0.05
CCOc1ccccc1NC(=O)Cn1nc2c(SC3CCCCC3)nccn2c1=O; 3
CCc1nnc2c(SCC(=O)Nc3cc(Cl)ccc3C)nc3ccccc3n12; 13.83
Cc1cccc(N(Cc2cccc(F)c2)S(=O)(=O)c2cccn3c(C)nnc23)c1; 20.9
Cc1ccc(-c2ccc3nn(Cc4nc(-c5ccc(Cl)cc5)no4)c(=O)n3n2)cc1C; 0
Cc1ccc(-c2ccc3nnc(CCC(=O)N4CCN(C(=O)c5ccco5)CC4)n3n2)cc1C; 7.73
O=C(CSc1nc2ccccc2n2cnnc12)NCc1ccccc1Cl; 1.47
O=C(Cn1nc2c(N3CCOCC3)nccn2c1=O)NCc1ccc(C(F)(F)F)cc1; 3.92
COc1ccc(Cl)cc1NC(=O)Cn1nc2c3cc(-c4ccc(C)c(C)c4)nn3ccn2c1=O; -18.41
CCc1nnc2c(S(=O)(=O)N(Cc3cccc(OC)c3)c3ccc(F)cc3)cccn12; -5.69
COc1ccc(-c2cc3c4nn(CC(=O)Nc5cc(OC)ccc5OC)c(=O)n4ccn3n2)cc1; 5.8
Cc1ccc(Cl)cc1N1CCN(C(=O)CCc2nnc3c4cc(-c5ccccc5)nn4ccn23)CC1; 1.17
